These entries and their values trace back to PubChem BioAssay AID1963432.

A collection of molecules and their measured viability, T/C
tested on: SYO-1 complex spheroid growth, percent test/control; assay: Anticancer human tumor SYO-1 cell line growth inhibition [Asc]; settings: second compound 0.316 µM; first compound 0.0316 µM; active compounds read low;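 also: compound exposure lasted 7 days after spheroids grew 3 days; 100% = DMSO vehicle control viability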

| MOLECULE | viability, T/C, % |
| --- | --- |
| C#Cc1c(F)ccc2cc(O)cc(-c3ncc4c(N5CC6CCC(C5)N6)nc(OCC56CCCN5CC(F)C6)nc4c3F)c12 (configuration not stated) + CNC(C)C(=O)NC1CN(S(=O)(=O)c2cccc(S(=O)(=O)N3CCC4CCC(C(=O)NC(c5ccccc5)c5ccccc5)N4C(=O)C(NC(=O)C(C)NC)C3)c2)CCC2CCC(C(=O)NC(c3ccccc3)c3ccccc3)N2C1=O | 98.7 |
| CNC(C)C(=O)NC1CN(S(=O)(=O)c2cccc(S(=O)(=O)N3CCC4CCC(C(=O)NC(c5ccccc5)c5ccccc5)N4C(=O)C(NC(=O)C(C)NC)C3)c2)CCC2CCC(C(=O)NC(c3ccccc3)c3ccccc3)N2C1=O (configuration not stated) + Cc1c(S(C)(=O)=O)c(-c2cc(F)cc(N3CCN(c4ccc(NS(=O)(=O)c5ccc(NC(CCN6CCC(C(=O)OCCCP(=O)(O)O)CC6)CSc6ccccc6)c(S(=O)(=O)C(F)(F)F)c5)cc4)CC3)c2)c(-c2ccc(Cl)cc2)n1C(C)C | 89 |
